Taken from patent US12576093B2.

assay: Pharmacokinetics after 24-hour subcutaneous infusion via fluid delivery device in male Beagle dogs (plasma, LC-MS/MS); conditions: male, Beagle, dog, in vivo, sc, 40 mg/animal, Plasma concentration of CBD, Group 1, SC infusion 40 mg/animal, 5 hr, mean (BLOQ samples excluded)
readout-label: concentration at 5 h

# chem-smiles, readout-label, measured
measured = [
    ("C=C(C)[C@@H]1CCC(C)=C[C@H]1c1c(O)cc(CCCCC)cc1O", "concentration at 5 h", "5.11 ng/mL"),
]

* * *

assay: Pharmacokinetics after 24-hour subcutaneous infusion via fluid delivery device in male Beagle dogs (plasma, LC-MS/MS); conditions: male, Beagle, dog, in vivo, sc, 40 mg/animal, Plasma concentration of CBD, Group 1, SC infusion 40 mg/animal, 0.75 hr, individual animals, BLOQ = below 1 ng/mL

# chem-smiles, units-text, concentration at 0.75 h
rows = [
    ("C=C(C)[C@@H]1CCC(C)=C[C@H]1c1c(O)cc(CCCCC)cc1O", "ng/mL", 2.83),
]

* * *

test: Pharmacokinetics after 24-hour subcutaneous infusion via fluid delivery device in male Beagle dogs (plasma, LC-MS/MS); conditions: male, Beagle, dog, in vivo, sc, 40 mg/animal, Plasma concentration of CBD, Group 1, SC infusion 40 mg/animal, 24 hr, individual animals, BLOQ = below 1 ng/mL
readout-label: concentration at 24 h (ng/mL)

# chem-smiles, readout-label, units-text, measured
records = [
    ("C=C(C)[C@@H]1CCC(C)=C[C@H]1c1c(O)cc(CCCCC)cc1O", "concentration at 24 h", "ng/mL", 9.48),
]

* * *

test: Pharmacokinetics after 24-hour subcutaneous infusion via fluid delivery device in male Beagle dogs (plasma, LC-MS/MS); conditions: male, Beagle, dog, in vivo, sc, 40 mg/animal, Plasma concentration of CBD, Group 1, SC infusion 40 mg/animal, 12 hr, mean (BLOQ samples excluded)

# molecule, concentration at 12 h [ng/mL]
measured = [
    ("C=C(C)[C@@H]1CCC(C)=C[C@H]1c1c(O)cc(CCCCC)cc1O [CBD, Cannabidiol]", 5.12),
]

* * *

test: Pharmacokinetics after 24-hour subcutaneous infusion via fluid delivery device in male Beagle dogs (plasma, LC-MS/MS); conditions: male, Beagle, dog, in vivo, sc, 40 mg/animal, Plasma concentration of CBD, Group 1, SC infusion 40 mg/animal, 48 hr, mean (BLOQ samples excluded)

# chem-smiles, concentration at 48 h, ng/mL
measured = [
    ("C=C(C)[C@@H]1CCC(C)=C[C@H]1c1c(O)cc(CCCCC)cc1O", 5.15),
]

* * *

test: in vivo; details: male, Beagle, dog, sc, 0.837 mg/kg, AUClast
readout-label: AUC(0-t) (ng·h/mL)

# compound, readout-label, measured
rows = [
    ("CN1CCc2cccc3c2[C@H]1Cc1ccc(O)c(O)c1-3 [Apomorphine]", "AUC(0-t)", 82.9),
]

* * *

assay: Pharmacokinetics after 24-hour subcutaneous infusion via fluid delivery device in male Beagle dogs (plasma, LC-MS/MS); conditions: male, Beagle, dog, in vivo, sc, 40 mg/animal, Plasma concentration of CBD, Group 1, SC infusion 40 mg/animal, 12 hr, individual animals, BLOQ = below 1 ng/mL
readout-label: concentration at 12 h (ng/mL)

# compound, units-text, measured
measured = [
    ("C=C(C)[C@@H]1CCC(C)=C[C@H]1c1c(O)cc(CCCCC)cc1O [CBD, Cannabidiol]", "ng/mL", 4.47),
]
